biological target: Metallo-beta-lactamase type 2 (Bacteroides fragilis, UniProt P25910); test: Inhibition of Bacteroides fragilis CcrA
Sequence (P25910 whole entry): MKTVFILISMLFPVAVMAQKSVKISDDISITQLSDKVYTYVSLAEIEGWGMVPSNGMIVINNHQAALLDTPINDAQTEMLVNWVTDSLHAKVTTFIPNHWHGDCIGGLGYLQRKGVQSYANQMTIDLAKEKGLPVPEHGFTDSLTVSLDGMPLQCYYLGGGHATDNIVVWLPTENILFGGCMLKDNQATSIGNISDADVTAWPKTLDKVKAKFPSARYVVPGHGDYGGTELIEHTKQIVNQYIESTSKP
Flag rule - IC50 less than 80 nM flags true; the remaining entries get false.

> print(dat)
                                smiles.repr                                    target  class.name
1  O=C([O-])C1=CS[C@@H]2/C(=C\c3cn4c(n3)CSCC4)C(=O)N12.[Na+]  Metallo-beta-lactamase type 2 (Bacteroides fragilis, UniProt P25910)        true
2  O=C([O-])C1=CS[C@@H]2/C(=C/c3cn4c(n3)COCC4)C(=O)N12.[Na+]  Metallo-beta-lactamase type 2 (Bacteroides fragilis, UniProt P25910)        true
3  O=C([O-])C1=CS[C@@H]2/C(=C/c3cn4c(n3)CSCC4)C(=O)N12.[Na+]  Metallo-beta-lactamase type 2 (Bacteroides fragilis, UniProt P25910)       false
4  O=C([O-])C1=CS[C@@H]2/C(=C/c3cn4c(n3)CNCC4)C(=O)N12.[Na+]  Metallo-beta-lactamase type 2 (Bacteroides fragilis, UniProt P25910)       false
5  O=C([O-])C1=CS[C@@H]2/C(=C\c3cc4n(n3)CCCO4)C(=O)N12.[Na+]  Metallo-beta-lactamase type 2 (Bacteroides fragilis, UniProt P25910)       false
6  O=C([O-])C1=CS[C@@H]2/C(=C\c3cc4n(n3)CCS(=O)(=O)C4)C(=O)N12.[Na+]  Metallo-beta-lactamase type 2 (Bacteroides fragilis, UniProt P25910)        true

====

// reported MIC per item
test system: Serratia marcescens; test: Antibacterial activity against Serratia marcescens expressing AmpC and Smel; assay type: functional
METRIC: MIC (µg/mL)

> print(dat)
                                 smiles.repr  metric  value.units  value.observed
 1  O=C([O-])C1=CS[C@@H]2/C(=C/c3cn4c(n3)COCC4)C(=O)N12.[Na+]     MIC        µg/mL               1
 2  COc1ccc(CN2CCc3sc(/C=C4/C(=O)N5C(C(=O)[O-])=CS[C@H]45)cc3C2)cc1.[Na+]     MIC        µg/mL               1
 3  O=C([O-])C1=CS[C@@H]2/C(=C\c3cc4n(n3)CCS(=O)(=O)C4)C(=O)N12.[Na+]     MIC        µg/mL               1
 4  CN1CCn2cc(/C=C3/C(=O)N4C(C(=O)[O-])=CS[C@H]34)nc2C1.[Na+]     MIC        µg/mL               1
 5  O=C([O-])C1=CS[C@@H]2/C(=C\c3cc4n(n3)CCCC4)C(=O)N12.[Na+]     MIC        µg/mL               1
 6  O=C([O-])C1=CS[C@@H]2/C(=C\c3cn4c(n3)CSCC4)C(=O)N12.[Na+]     MIC        µg/mL               8
 7  O=C([O-])C1=CS[C@@H]2/C(=C\c3cc4n(n3)CCNC4)C(=O)N12.[Na+]     MIC        µg/mL               1
 8  O=C([O-])C1=CS[C@@H]2/C(=C\c3cc4n(n3)CCOC4)C(=O)N12.[Na+]     MIC        µg/mL               1
 9  O=C([O-])C1=CS[C@@H]2/C(=C/c3cn4c(n3)CNCC4)C(=O)N12.[Na+]     MIC        µg/mL               1
10  O=C([O-])C1=CS[C@@H]2/C(=C\c3cc4c(s3)CCN(Cc3cccnc3)C4)C(=O)N12.[Na+]     MIC        µg/mL               1
11  O=C([O-])C1=CS[C@@H]2/C(=C\c3cc4n(n3)CCCO4)C(=O)N12.[Na+]     MIC        µg/mL               1
12  O=C([O-])C1=CS[C@@H]2/C(=C\c3cc4n(n3)CCSC4)C(=O)N12.[Na+]     MIC        µg/mL             0.5
13  C[C@]1(Cn2ccnn2)[C@H](C(=O)O)N2C(=O)C[C@H]2S1(=O)=O     MIC        µg/mL               1
14  O=C([O-])C1=CS[C@@H]2/C(=C/c3cn4c(n3)CSCC4)C(=O)N12.[Na+]     MIC        µg/mL               4
